- TEST TARGET: Furin (Homo sapiens, UniProt P09958)
- Sequence (P09958 whole entry): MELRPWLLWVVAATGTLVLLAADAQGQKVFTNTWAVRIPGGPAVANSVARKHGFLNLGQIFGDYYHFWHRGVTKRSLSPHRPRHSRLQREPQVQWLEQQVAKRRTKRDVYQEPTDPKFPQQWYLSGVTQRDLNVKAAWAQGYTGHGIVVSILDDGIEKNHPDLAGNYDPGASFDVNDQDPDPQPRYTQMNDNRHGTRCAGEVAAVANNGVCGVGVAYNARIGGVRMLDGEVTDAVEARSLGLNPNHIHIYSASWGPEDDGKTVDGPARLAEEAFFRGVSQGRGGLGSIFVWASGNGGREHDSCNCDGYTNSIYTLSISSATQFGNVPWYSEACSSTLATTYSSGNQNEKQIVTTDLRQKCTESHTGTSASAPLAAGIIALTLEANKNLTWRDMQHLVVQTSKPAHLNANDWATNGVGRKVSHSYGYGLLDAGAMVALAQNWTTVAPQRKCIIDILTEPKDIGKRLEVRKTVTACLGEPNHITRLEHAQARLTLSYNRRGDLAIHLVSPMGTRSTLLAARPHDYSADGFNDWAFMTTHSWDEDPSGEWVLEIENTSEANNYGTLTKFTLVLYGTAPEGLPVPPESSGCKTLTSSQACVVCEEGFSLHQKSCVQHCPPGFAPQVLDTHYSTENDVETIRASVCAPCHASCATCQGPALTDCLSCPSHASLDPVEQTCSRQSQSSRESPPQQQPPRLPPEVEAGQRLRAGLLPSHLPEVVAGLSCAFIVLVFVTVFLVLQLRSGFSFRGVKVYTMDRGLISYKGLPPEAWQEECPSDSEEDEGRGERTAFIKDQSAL
- ASSAY NOTES: Inhibition of recombinant human furin expressed in drosophila S2 cells using pyrGlu-Arg-Thr-Lys-Arg-7-amido-4-methylcoumarin as substrate after 60 mins by spectrofluorometry method
Peptide text beside a SMILES is read from it. * marks the point of attachment. NH(4-amidinobenzyl) = N=C(N)c1ccc(CN*)cc1
READOUT NAME: Ki (nM)
Expressed in nM, but write only the number.

Could you share what Ki was measured for CC(=O)N[C@@H](CC(C)C)C(=O)N[C@@H](CC(N)=O)C(=O)N[C@@H](CC(C)C)C(=O)N[C@@H](CC(C)C)C(=O)N[C@@H](CCCNC(=N)N)C(=O)N[C@H](C(=O)N[C@@H](CCCCN)C(=O)NCc1ccc(C(=N)N)cc1)C(C)C (Ac-LNLLRVK-{NH(4-amidinobenzyl)}) , tested on Furin (Homo sapiens, UniProt P09958)?
1

---
Could you share what Ki was measured for CC(=O)N[C@@H](CC(C)C)C(=O)N[C@@H](CC(C)C)C(=O)N[C@@H](CC(C)C)C(=O)N[C@@H](Cc1c[nH]c2ccccc12)C(=O)N[C@@H](CCCNC(=N)N)C(=O)N[C@H](C(=O)N[C@@H](CCCCN)C(=O)NCc1ccc(C(=N)N)cc1)C(C)C (Ac-LLLWRVK-{NH(4-amidinobenzyl)}) , tested on Furin (Homo sapiens, UniProt P09958)?
8

====

Recorded Ki, one value per entry.
- TEST TARGET: Furin (Homo sapiens)
- ASSAY NOTES: Inhibition of recombinant human furin expressed in drosophila S2 cells using pyrGlu-Arg-Thr-Lys-Arg-7-amido-4-methylcoumarin as substrate after 60 mins by spectrofluorometry method
Peptide text beside a SMILES is read from it. * marks the point of attachment. NH(4-amidinobenzyl) = N=C(N)c1ccc(CN*)cc1

# count of solved cases: 5
Look at this compound and give its reported Ki. CC(=O)N[C@H](C(=O)N[C@@H](CC(C)C)C(=O)N[C@@H](CC(C)C)C(=O)N[C@@H](CC(C)C)C(=O)N[C@@H](CCCNC(=N)N)C(=O)N[C@H](C(=O)N[C@@H](CCCCN)C(=O)NCc1ccc(C(=N)N)cc1)C(C)C)[C@@H](C)O (Ac-TLLLRVK-{NH(4-amidinobenzyl)})
2.4 nM

Look at this compound and give its reported Ki. CC(=O)N[C@@H](CC(C)C)C(=O)N[C@@H](CC(C)C)C(=O)N[C@@H](CCCCN)C(=O)N[C@@H](CC(C)C)C(=O)N[C@@H](CCCNC(=N)N)C(=O)N[C@H](C(=O)N[C@@H](CCCCN)C(=O)NCc1ccc(C(=N)N)cc1)C(C)C (Ac-LLKLRVK-{NH(4-amidinobenzyl)})
4 nM

Look at this compound and give its reported Ki. CC(=O)N[C@@H](CC(C)C)C(=O)N[C@@H](CCC(=O)O)C(=O)N[C@@H](CC(C)C)C(=O)N[C@@H](CC(C)C)C(=O)N[C@@H](CCCNC(=N)N)C(=O)N[C@H](C(=O)N[C@@H](CCCCN)C(=O)NCc1ccc(C(=N)N)cc1)C(C)C (Ac-LELLRVK-{NH(4-amidinobenzyl)})
23 nM

Look at this compound and give its reported Ki. CC(=O)N[C@@H](CC(C)C)C(=O)N[C@@H](CC(C)C)C(=O)N[C@@H](CC(C)C)C(=O)N[C@@H](Cc1ccccc1)C(=O)N[C@@H](CCCNC(=N)N)C(=O)N[C@H](C(=O)N[C@@H](CCCCN)C(=O)NCc1ccc(C(=N)N)cc1)C(C)C (Ac-LLLFRVK-{NH(4-amidinobenzyl)})
6 nM

Look at this compound and give its reported Ki. CC[C@H](C)[C@H](NC(=O)[C@H](CC(C)C)NC(=O)[C@@H](CC(C)C)NC(C)=O)C(=O)N[C@H](C(=O)N[C@@H](CCCNC(=N)N)C(=O)N[C@H](C(=O)N[C@@H](CCCCN)C(=O)NCc1ccc(C(=N)N)cc1)C(C)C)[C@@H](C)CC
11.7 nM

---
Look at this compound and give its reported Ki. CC(=O)N[C@@H](CC(C)C)C(=O)N[C@@H](CC(C)C)C(=O)N[C@@H](CC(C)C)C(=O)N[C@@H](CCC(N)=O)C(=O)N[C@@H](CCCNC(=N)N)C(=O)N[C@H](C(=O)N[C@@H](CCCCN)C(=O)NCc1ccc(C(=N)N)cc1)C(C)C (Ac-LLLQRVK-{NH(4-amidinobenzyl)})
4 nM

Look at this compound and give its reported Ki. CC(=O)N[C@@H](CC(C)C)C(=O)N[C@@H](CC(C)C)C(=O)N[C@@H](CC(C)C)C(=O)N1CCC[C@H]1C(=O)N[C@@H](CCCNC(=N)N)C(=O)N[C@H](C(=O)N[C@@H](CCCCN)C(=O)NCc1ccc(C(=N)N)cc1)C(C)C (Ac-LLLPRVK-{NH(4-amidinobenzyl)})
4 nM

Look at this compound and give its reported Ki. CC(=O)N[C@@H](Cc1c[nH]c2ccccc12)C(=O)N[C@@H](CC(C)C)C(=O)N[C@@H](CC(C)C)C(=O)N[C@@H](CC(C)C)C(=O)N[C@@H](CCCNC(=N)N)C(=O)N[C@H](C(=O)N[C@@H](CCCCN)C(=O)NCc1ccc(C(=N)N)cc1)C(C)C (Ac-WLLLRVK-{NH(4-amidinobenzyl)})
6 nM

Look at this compound and give its reported Ki. CSCC[C@H](NC(=O)[C@H](CC(C)C)NC(=O)[C@H](CC(C)C)NC(C)=O)C(=O)N[C@@H](CC(C)C)C(=O)N[C@@H](CCCNC(=N)N)C(=O)N[C@H](C(=O)N[C@@H](CCCCN)C(=O)NCc1ccc(C(=N)N)cc1)C(C)C (Ac-LLMLRVK-{NH(4-amidinobenzyl)})
18 nM

Look at this compound and give its reported Ki. CC[C@H](C)[C@H](NC(=O)[C@H](CC(C)C)NC(=O)[C@H](CC(C)C)NC(C)=O)C(=O)N[C@H](C(=O)N[C@@H](CCCNC(=N)N)C(=O)N[C@H](C(=O)N[C@@H](CCCCN)C(=O)NCc1ccc(C(=N)N)cc1)C(C)C)[C@@H](C)CC
8.1 nM

Look at this compound and give its reported Ki. CC(=O)N[C@@H](CC(C)C)C(=O)N[C@@H](CC(C)C)C(=O)N[C@@H](CC(C)C)C(=O)N[C@@H](Cc1ccc(O)cc1)C(=O)N[C@@H](CCCNC(=N)N)C(=O)N[C@H](C(=O)N[C@@H](CCCCN)C(=O)NCc1ccc(C(=N)N)cc1)C(C)C (Ac-LLLYRVK-{NH(4-amidinobenzyl)})
3.1 nM

Look at this compound and give its reported Ki. CC(=O)N[C@@H](CC(C)C)C(=O)N[C@@H](CC(C)C)C(=O)N[C@@H](CO)C(=O)N[C@@H](CC(C)C)C(=O)N[C@@H](CCCNC(=N)N)C(=O)N[C@H](C(=O)N[C@@H](CCCCN)C(=O)NCc1ccc(C(=N)N)cc1)C(C)C (Ac-LLSLRVK-{NH(4-amidinobenzyl)})
15 nM

Look at this compound and give its reported Ki. CC(=O)N[C@@H](CC(C)C)C(=O)N[C@@H](CCCCN)C(=O)N[C@@H](CC(C)C)C(=O)N[C@@H](CC(C)C)C(=O)N[C@@H](CCCNC(=N)N)C(=O)N[C@H](C(=O)N[C@@H](CCCCN)C(=O)NCc1ccc(C(=N)N)cc1)C(C)C (Ac-LKLLRVK-{NH(4-amidinobenzyl)})
0.6 nM

Look at this compound and give its reported Ki. CC(=O)N[C@@H](CC(C)C)C(=O)N[C@@H](CC(C)C)C(=O)N[C@@H](CC(C)C)C(=O)N[C@@H](CC(=O)O)C(=O)N[C@@H](CCCNC(=N)N)C(=O)N[C@H](C(=O)N[C@@H](CCCCN)C(=O)NCc1ccc(C(=N)N)cc1)C(C)C (Ac-LLLDRVK-{NH(4-amidinobenzyl)})
260 nM

====

- TEST TARGET: Furin (Homo sapiens)
- ASSAY NOTES: Inhibition of recombinant human furin expressed in drosophila S2 cells using pyrGlu-Arg-Thr-Lys-Arg-7-amido-4-methylcoumarin as substrate after 60 mins by spectrofluorometry method
Peptide text beside a SMILES is read from it. * marks the point of attachment. NH(4-amidinobenzyl) = N=C(N)c1ccc(CN*)cc1
READOUT NAME: Ki
Phrase the answer as number then unit, nothing more needed.

Look at this molecule and give its reported Ki. CSCC[C@H](NC(=O)[C@H](CC(C)C)NC(C)=O)C(=O)N[C@@H](CC(C)C)C(=O)N[C@@H](CC(C)C)C(=O)N[C@@H](CCCNC(=N)N)C(=O)N[C@H](C(=O)N[C@@H](CCCCN)C(=O)NCc1ccc(C(=N)N)cc1)C(C)C (Ac-LMLLRVK-{NH(4-amidinobenzyl)})
3 nM

Next item in the queue.
Look at this molecule and give its reported Ki. CC(=O)N[C@@H](CC(C)C)C(=O)N[C@@H](CC(C)C)C(=O)N[C@@H](CC(C)C)C(=O)NCC(=O)N[C@@H](CCCNC(=N)N)C(=O)N[C@H](C(=O)N[C@@H](CCCCN)C(=O)NCc1ccc(C(=N)N)cc1)C(C)C (Ac-LLLGRVK-{NH(4-amidinobenzyl)})
12 nM
